- target-entity: 5-hydroxytryptamine receptor 7 (Rattus norvegicus, UniProt P32305)
- Sequence (P32305 whole entry): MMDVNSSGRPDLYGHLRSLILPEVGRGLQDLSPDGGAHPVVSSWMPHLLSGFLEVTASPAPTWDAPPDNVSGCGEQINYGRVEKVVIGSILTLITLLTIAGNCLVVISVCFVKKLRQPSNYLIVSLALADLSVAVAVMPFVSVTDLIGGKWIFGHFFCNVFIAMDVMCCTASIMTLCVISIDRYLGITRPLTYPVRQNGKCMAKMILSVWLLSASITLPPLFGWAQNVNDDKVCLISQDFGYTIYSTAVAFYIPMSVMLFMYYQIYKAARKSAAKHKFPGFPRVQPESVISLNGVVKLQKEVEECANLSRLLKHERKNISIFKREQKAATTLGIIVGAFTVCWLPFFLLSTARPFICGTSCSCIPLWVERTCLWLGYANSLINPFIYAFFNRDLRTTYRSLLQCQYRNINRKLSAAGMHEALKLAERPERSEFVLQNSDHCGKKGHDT
- procedure-details: Binding affinity against 5-hydroxytryptamine 7 receptor using [3H]-5-CT in rat hypothalamus membranes
- Assay type: cell membranes, Membrane
measured-attribute: Ki

Item `COc1ccccc1N1CCN(CCCCCN2C(=O)c3cccc4cccc2c34)CC1` : provide Ki
100 nM

Provide measured Ki value, entry: `CC1CCN(CCCCCN2c3cccc4cccc(c34)S2(=O)=O)CC1`
> 10000 nM

Could you please provide reported Ki for `O=C1c2cccc3cccc(c23)N1CCCCCN1CCN(c2ccccc2)CC1` ? Thanks!
79.4 nM

Note down Ki recorded for `COc1ccccc1N1CCN(CCCCCN2c3cccc4cccc(c34)S2(=O)=O)CC1`
251 nM

Dear colleague, please send me the reported Ki for `O=C1c2cccc3cccc(c23)N1CCCCN1CCCCC1` when you can.
> 10000 nM

Identify Ki associated with the compound `CN1CCN(CCCCN2c3cccc4cccc(c34)S2(=O)=O)CC1`
> 10000 nM

Respond only with Ki recorded for `COc1ccccc1N1CCN(CCCCN2C(=O)c3cccc4cccc2c34)CC1`
63.1 nM

Tell me its Ki given `COc1ccccc1N1CCN(CCCCCCN2c3cccc4cccc(c34)S2(=O)=O)CC1` as the entry.
200 nM

Answer with reported Ki of `O=S1(=O)c2cccc3cccc(c23)N1CCCCCN1CCN(c2ccccc2)CC1`
200 nM

Supply recorded Ki for `CC1CCN(CCCCN2C(=O)c3cccc4cccc2c34)CC1` here.
> 1000 nM

Provide measured Ki value, entry: `O=S1(=O)c2cccc3cccc(c23)N1CCCCN1CCCCC1`
> 10000 nM

For the compound `COc1ccccc1N1CCN(CCCCN2c3cccc4cccc(c34)S2(=O)=O)CC1` , report Ki.
200 nM

# return recorded Ki for input `CN1CCN(CCCCN2C(=O)c3cccc4cccc2c34)CC1`
> 10000 nM

Name the recorded Ki of the compound listed here: `CC1CCN(CCCCN2c3cccc4cccc(c34)S2(=O)=O)CC1`
> 10000 nM

Respond only with Ki recorded for `CC(C)C1CCN(CCCCN2C(=O)c3cccc4cccc2c34)CC1`
200 nM
